The measurements presented in this section are drawn from patent US5364876A.

# target-or-test-system: CNQX labeled non-NMDA receptors
# procedure-summary: CNQX-labeled non-NMDA receptor binding
# run-conditions: read-out: Receptor Potency (Ki), CNQX

{"compound": "Cc1ccc(CCCC(=O)O)c(C[C@H](N)C(=O)O)c1 [Example 26]", "target-or-test-system": "CNQX labeled non-NMDA receptors", "unit-label": "µM", "Ki": 8.4}

====

# target-or-test-system: strychnine insensitive glycine site (Rattus norvegicus)
# procedure-summary: Strychnine insensitive glycine binding
# run-conditions: read-out: Receptor Potency (Ki), Glycine
pKi: −log10 of the molar value.
readout-label: pKi

{"compound": "Cc1cc(C)c(CCC(=O)O)c(C[C@H](N)C(=O)O)c1", "readout-label": "pKi", "observed-value": 3.68}
{"compound": "Cc1ccc(CCCC(=O)O)c(C[C@H](N)C(=O)O)c1", "readout-label": "pKi", "observed-value": 2.62}
{"compound": "NC(Cc1cc(Cl)ccc1CCC(=O)O)C(=O)O (stereo not shown)", "readout-label": "pKi", "observed-value": 5.05}
{"compound": "NC(Cc1cc(F)ccc1CCC(=O)O)C(=O)O (stereo not shown)", "readout-label": "pKi", "observed-value": 4.39}

====

# target-or-test-system: GLU (NMDA receptors)
# procedure-summary: GLU receptor ligand binding (NMDA receptors)
# run-conditions: read-out: Receptor Potency (Ki), GLU
Item-by-item account of Ki

{"molecule": "Cc1ccc(CCCC(=O)O)c(C[C@H](N)C(=O)O)c1 [Example 26]", "target-or-test-system": "GLU (NMDA receptors)", "Ki": "> 1000 µM"}
{"molecule": "Cc1cc(C)c(CCC(=O)O)c(C[C@H](N)C(=O)O)c1 [Example 5c]", "target-or-test-system": "GLU (NMDA receptors)", "Ki": "> 1000 µM"}
{"molecule": "NC(Cc1cc(F)ccc1CCC(=O)O)C(=O)O (stereo not shown) [Example 5a]", "target-or-test-system": "GLU (NMDA receptors)", "Ki": "> 300 µM"}
{"molecule": "NC(Cc1cc(Cl)ccc1CCC(=O)O)C(=O)O (stereo not shown) [Example 5b]", "target-or-test-system": "GLU (NMDA receptors)", "Ki": "> 300 µM"}

====

# target-or-test-system: AMPA receptors (AMPA-induced currents)
# procedure-summary: Inhibition of AMPA-induced currents in rat brain mRNA-injected Xenopus oocytes
# run-conditions: Xenopus oocytes injected with rat brain mRNA; IC50 converted to Ki by Cheng-Prusoff equation
pKi: −log10 of the molar value.

{"molecule": "NC(Cc1cc(Cl)ccc1CCC(=O)O)C(=O)O (stereo not shown)", "target-or-test-system": "AMPA receptors (AMPA-induced currents)", "pKi": 4.02}
